Where do the numbers come from? From patent US20150031754.

target: Human estrogen receptor alpha (hERα), full-length, unliganded (Homo sapiens, UniProt P03372 P03372:1-595)
Sequence (P03372 whole entry, one chain of several): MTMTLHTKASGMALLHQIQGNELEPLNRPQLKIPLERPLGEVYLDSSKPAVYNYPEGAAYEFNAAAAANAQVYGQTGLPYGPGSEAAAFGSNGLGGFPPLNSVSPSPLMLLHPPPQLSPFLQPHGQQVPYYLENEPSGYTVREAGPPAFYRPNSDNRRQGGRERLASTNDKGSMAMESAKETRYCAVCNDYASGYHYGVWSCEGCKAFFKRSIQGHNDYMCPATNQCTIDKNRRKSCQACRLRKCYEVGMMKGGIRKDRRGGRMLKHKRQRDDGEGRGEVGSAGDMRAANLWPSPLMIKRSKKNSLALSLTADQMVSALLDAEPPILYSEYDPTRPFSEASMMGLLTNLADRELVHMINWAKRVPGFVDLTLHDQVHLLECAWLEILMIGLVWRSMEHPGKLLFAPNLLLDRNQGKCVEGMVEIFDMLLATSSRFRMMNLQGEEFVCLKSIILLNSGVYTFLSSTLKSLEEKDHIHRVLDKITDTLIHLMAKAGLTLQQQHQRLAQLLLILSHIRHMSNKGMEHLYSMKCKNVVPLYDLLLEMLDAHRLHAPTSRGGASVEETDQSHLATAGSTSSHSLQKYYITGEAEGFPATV
experiment: EMSA; 10 mM MgCl2, 37 C binding
condition.info: tags: none stated; baculovirus/insect cells; Invitrogen P2187 or EMD4 Biosciences 330655; label: 32P internal; stem-loop
measurement.type: Kd

Ask | Given the binder AptER-1(65nt) (sB63) (ssRNA) RNA: GGGCAGAGGCACCGCGAACAAAACGCAAGACAGAGUGCCGACAAGAGCACUACAAGCUUCUGCCC , what is its reported Kd?
Reply | ~30 nM
